assay: self-splicing fitness, log relative to wild type (ln ratio); higher = more splicing; Tetrahymena group I intron in knt gene, E. coli kanamycin selection, DiMSum; sequences stand for … in CUCUCU…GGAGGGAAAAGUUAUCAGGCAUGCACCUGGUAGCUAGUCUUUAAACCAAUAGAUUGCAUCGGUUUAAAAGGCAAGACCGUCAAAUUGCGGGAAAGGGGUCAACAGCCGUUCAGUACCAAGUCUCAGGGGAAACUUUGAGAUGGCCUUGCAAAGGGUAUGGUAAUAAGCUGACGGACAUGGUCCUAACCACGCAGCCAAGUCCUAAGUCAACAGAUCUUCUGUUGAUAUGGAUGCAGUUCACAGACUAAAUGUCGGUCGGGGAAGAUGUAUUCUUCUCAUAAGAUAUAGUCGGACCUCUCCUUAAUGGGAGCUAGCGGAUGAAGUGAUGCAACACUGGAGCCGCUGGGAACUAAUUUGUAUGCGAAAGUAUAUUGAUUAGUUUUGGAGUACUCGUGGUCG; settings: 30 °C;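 further: selection with 25 µg/mL kanamycin versus none on LB agar overnight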
Rule: self-splicing fitness (ln) of -2 or more gives Criterion met; anything lower gives Criterion not met.

>>> classname("GGUAAGCAAUAUUACGGCCU")
"Criterion not met"
>>> classname("AUAGAGCAAUAUUACGGCAC")
"Criterion met"
>>> classname("ACGGAGCAAUAUUACGUGGC")
"Criterion not met"
>>> classname("AACGAGCAAUAUUACGCGAU")
"Criterion not met"
>>> classname("UCUUAGCAAUAUUACGAUCA")
"Criterion met"
>>> classname("GAUUAGCAAUAUUACGCGUG")
"Criterion met"
>>> classname("GACUAGCAAUAUUACGAUCU")
"Criterion met"
>>> classname("CUGAAGCAAUAUUACGACAA")
"Criterion met"
